Target: T1, 4H710-AA
T1 chain: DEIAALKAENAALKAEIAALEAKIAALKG
Test: two-hybrid library CCmax;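 further: natural log of median RNA to DNA barcode read ratio; higher means stronger binding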
Settings: mean of both orientations
Assign label 1 to entries whose interaction score meets or exceeds 0.7; assign label 0 to the rest.

query: Dear colleague, could you confirm whether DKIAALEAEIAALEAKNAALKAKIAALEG [4H2109-AA] has interaction score at or above 0.7?
result: label 0

query: Dear colleague, could you confirm whether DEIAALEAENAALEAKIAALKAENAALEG [4H171-AA] has interaction score at or above 0.7?
result: label 1

query: Dear colleague, could you confirm whether DEIAALEAKNAALKAEIAALKAEIAALKG [4H458-AA] has interaction score at or above 0.7?
result: label 1

query: Dear colleague, could you confirm whether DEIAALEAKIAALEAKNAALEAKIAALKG [4H310-AA] has interaction score at or above 0.7?
result: label 0

query: Dear colleague, could you confirm whether DEIAALKAEIAALEAKNAALKAEIAALKG [4H570-AA] has interaction score at or above 0.7?
result: label 0

query: Dear colleague, could you confirm whether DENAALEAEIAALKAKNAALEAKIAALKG [4H1142-AA] has interaction score at or above 0.7?
result: label 0

query: Dear colleague, could you confirm whether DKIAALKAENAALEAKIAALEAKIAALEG [4H2725-AA] has interaction score at or above 0.7?
result: label 1
